Listing: relative viability of selected molecules
System: HCC-366
Experiment: relative viability (nuclei count vs DMSO), 5 days (fraction); higher = more cells survive
Settings: first compound 1 µM

# molecule, relative viability
records = [
    ("NC(=O)Nc1cc(-c2cccc(F)c2)sc1C(=O)N[C@H]1CCCNC1 [AZD7762] + N=C(N)NC(=N)NCCc1ccccc1 [Phenformin] (partner 250 µM)", 0.312),
    ("NC(=O)Nc1cc(-c2cccc(F)c2)sc1C(=O)N[C@H]1CCCNC1 [AZD7762] + C[C@]1(O)C[C@@H](c2nc(-c3ccc4ccc(-c5ccccc5)nc4c3)c3c(N)nccn32)C1 [Linsitinib] (partner 1 µM)", 0.0442),
    ("NC(=O)Nc1cc(-c2cccc(F)c2)sc1C(=O)N[C@H]1CCCNC1 [AZD7762] + O=C(CCCCCCC(=O)Nc1ccccc1)NO [Vorinostat] (partner 1 µM)", 0.104),
    ("NC(=O)Nc1cc(-c2cccc(F)c2)sc1C(=O)N[C@H]1CCCNC1 [AZD7762] + Nc1ncn([C@H]2C[C@H](O)[C@@H](CO)O2)c(=O)n1 [Decitabine] (partner 2 µM)", 0.154),
]
